Source listed as paper PMC11357404.

- test protocol: Cytotoxicity, MTT assay in Vero cells
- Type: cell-based, Cercopithecus aethiops
- condition summary: African green monkey (Cercopithecus aethiops); Absolute CC50, Vero cells, MTT, 72 h
measure: CC50 at 72 h

[[record]]
chemical_structure = "O=C(O)C1=Cc2c(n(Cc3ccccc3)c3ccccc23)C(C(=O)O)=Cc2c1n(Cc1ccccc1)c1ccccc21"
measure = "CC50 at 72 h"
result = "494 µM"

[[record]]
chemical_structure = "C=CCn1c2c(c3ccccc31)C=C(C(=O)O)c1c(c3ccccc3n1CC=C)C=C2C(=O)O"
measure = "CC50 at 72 h"
result = "664 µM"

[[record]]
chemical_structure = "C=CCn1c2c(c3ccccc31)C=C(C(=O)OC)c1c(c3ccccc3n1CC=C)C=C2C(=O)OC"
measure = "CC50 at 72 h"
result = "628 µM"

[[record]]
chemical_structure = "Cn1c2c(c3ccccc31)C=C(C(=O)O)c1c(c3ccccc3n1C)C=C2C(=O)O"
measure = "CC50 at 72 h"
result = "679 µM"

[[record]]
chemical_structure = "CCn1c2c(c3ccccc31)C=C(C(=O)O)c1c(c3ccccc3n1CC)C=C2C(=O)O"
measure = "CC50 at 72 h"
result = "1000 µM"

[[record]]
chemical_structure = "CCn1c2c(c3ccccc31)C=C(C(=O)OC)c1c(c3ccccc3n1CC)C=C2C(=O)OC"
measure = "CC50 at 72 h"
result = "548 µM"


Provide CC50 at 72 h values for the following items, in order.
1. COC(=O)C1=Cc2c(n(C)c3ccccc23)C(C(=O)OC)=Cc2c1n(C)c1ccccc21
2. COC(=O)/C1=C/c2c([nH]c3ccccc23)/C(C(=O)OC)=C\c2c1[nH]c1ccccc21
3. COC(=O)C1=Cc2c(n(Cc3ccccc3)c3ccccc23)C(C(=O)OC)=Cc2c1n(Cc1ccccc1)c1ccccc21
4. O=C(O)C1=Cc2c([nH]c3ccccc23)C(C(=O)O)=Cc2c1[nH]c1ccccc21

Result:
["524 µM", "688 µM", "891 µM", "1040 µM"]
